So I've got a bunch of molecules here, and I need their pIC50 values.
test-target: NDM-1 (Klebsiella pneumoniae)
test: biochemical
Type: biochemical
protocol-conditions: fluorescence assay, CCF2-FA substrate, 1 pM enzyme, 2 hours at 25° C.; read-out: NDM-1 IC50
Quick note: pIC50 values are minus log10 of concentrations in mol/L.

Request the reported pIC50 associated with `NCCNS(=O)(=O)c1ccc(-c2cccc(-c3n[nH]c(N)n3)c2)c(-c2nn[nH]n2)c1S(N)(=O)=O`
10.06

Request the reported pIC50 associated with `C[C@H](CN)NS(=O)(=O)c1ccc(-c2ccnc(N)c2)c(-c2nn[nH]n2)c1S(N)(=O)=O`
9.77

Request the reported pIC50 associated with `NCc1nc2c(-c3ccc(S(=O)(=O)NC[C@@H](O)CN)c(S(N)(=O)=O)c3-c3nn[nH]n3)cccc2s1`
10.23

Request the reported pIC50 associated with `Nc1nc2c(-c3ccc(S(=O)(=O)NCCN4CCCCC4=O)c(S(N)(=O)=O)c3-c3nnn[nH]3)cccc2s1`
10.14

Request the reported pIC50 associated with `NCc1nc2cc(-c3ccc(S(=O)(=O)N[C@@H](CN)CO)c(S(N)(=O)=O)c3-c3nn[nH]n3)ccc2[nH]1`
9.98

###

test-target: IMP-1 (Serratia marcescens, UniProt P52699)
Sequence (P52699 whole entry, looked up, species assumed): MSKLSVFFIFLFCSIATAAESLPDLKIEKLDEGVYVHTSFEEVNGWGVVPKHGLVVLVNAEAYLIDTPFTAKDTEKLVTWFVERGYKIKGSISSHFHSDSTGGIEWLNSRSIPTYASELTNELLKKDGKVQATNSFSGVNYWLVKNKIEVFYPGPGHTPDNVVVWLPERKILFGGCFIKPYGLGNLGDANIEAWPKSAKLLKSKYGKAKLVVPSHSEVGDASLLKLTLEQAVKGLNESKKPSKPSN
test: biochemical
Format: biochemical
protocol-conditions: fluorescence assay, CCF2-FA substrate, 2 pM enzyme, 2 hours at 25° C.; read-out: IMP-1 IC50
Friendly reminder: IC50 below 0.6 nM is t, at or above is f.

Report whether reported IC50 is lower than 0.6 nM (strictly) for NCc1nc2c(-c3ccc(S(=O)(=O)NC[C@@H](O)CN)c(S(N)(=O)=O)c3-c3nn[nH]n3)cccc2s1 [Example 306]
t

Report whether reported IC50 is lower than 0.6 nM (strictly) for C[C@@H](CN)NS(=O)(=O)c1ccc(-c2ccc(N)nc2)c(-c2nn[nH]n2)c1S(N)(=O)=O [Example 394]
f

Report whether reported IC50 is lower than 0.6 nM (strictly) for NC[C@H]1CCN(S(=O)(=O)c2ccc(-c3cccc4[nH]c(N)nc34)c(-c3nn[nH]n3)c2S(N)(=O)=O)C1 [Example 253]
f

Report whether reported IC50 is lower than 0.6 nM (strictly) for Nc1nc2c(-c3ccc(S(=O)(=O)N4CCNC(=O)C4)c(S(N)(=O)=O)c3-c3nnn[nH]3)cccc2s1 [Example 28]
f

Report whether reported IC50 is lower than 0.6 nM (strictly) for Nc1nc2c(-c3ccc(S(=O)(=O)NC4CCc5nccn5C4)c(S(N)(=O)=O)c3-c3nnn[nH]3)cccc2s1 (centres unmarked) [Example 35]
t

Report whether reported IC50 is lower than 0.6 nM (strictly) for NCCNS(=O)(=O)c1ccc(-c2cccc3[nH]c([C@H](N)CO)nc23)c(-c2nn[nH]n2)c1S(N)(=O)=O [Example 330]
f

Report whether reported IC50 is lower than 0.6 nM (strictly) for NS(=O)(=O)c1c(S(=O)(=O)N[C@@H]2CCNC2)ccc(-c2cccc3cn[nH]c23)c1-c1nnn[nH]1 [Example 139]
t

Report whether reported IC50 is lower than 0.6 nM (strictly) for NCCNS(=O)(=O)c1ccc(-c2cccn3ccnc23)c(-c2nn[nH]n2)c1S(N)(=O)=O [Example 361]
t

Report whether reported IC50 is lower than 0.6 nM (strictly) for Nc1ccc(-c2ccc(S(=O)(=O)NC[C@H](N)CO)c(S(N)(=O)=O)c2-c2nn[nH]n2)cn1 [Example 297]
t

Report whether reported IC50 is lower than 0.6 nM (strictly) for Nc1ncc(-c2ccc(S(=O)(=O)N[C@@H]3CNC[C@@H]3N)c(S(N)(=O)=O)c2-c2nn[nH]n2)s1 [Example 321]
f

Report whether reported IC50 is lower than 0.6 nM (strictly) for NCCNS(=O)(=O)c1ccc(-c2ccc(N)nc2)c(-c2nn[nH]n2)c1S(N)(=O)=O [Example 196]
t

Report whether reported IC50 is lower than 0.6 nM (strictly) for NCC(CN)NS(=O)(=O)c1ccc(-c2cccc(C3N=NC(N)=N3)c2)c(-c2nn[nH]n2)c1S(N)(=O)=O (centres unmarked) [Example 229]
t

Report whether reported IC50 is lower than 0.6 nM (strictly) for Nc1ccc(-c2ccc(S(=O)(=O)NC[C@@H]3CCNC3)c(S(N)(=O)=O)c2-c2nn[nH]n2)cn1 [Example 491]
t

Report whether reported IC50 is lower than 0.6 nM (strictly) for Nc1nc2c(-c3ccc(S(=O)(=O)N[C@@H]4CN[C@H](CO)C4)c(S(N)(=O)=O)c3-c3nnn[nH]3)cccc2s1 [Example 80]
t

###

Tested on: Pseudomonas aeruginosa MB9798 vs MB9799
protocol-conditions: ratio MITC95 PA_9798/MITC95 PA_9799
Friendly reminder: Efflux ratio below 1 is Met, at or above is Not met.

Report whether reported Efflux ratio is lower than 1 (strictly) for N#Cc1cccc(-c2ccc(S(=O)(=O)N[C@@H]3CCNC3)c(S(N)(=O)=O)c2-c2nnn[nH]2)c1N [Example 132]
Not met

Report whether reported Efflux ratio is lower than 1 (strictly) for Nc1nc2c(-c3ccc(S(=O)(=O)NC[C@@H](N)C(=O)O)c(S(N)(=O)=O)c3-c3nn[nH]n3)cccc2s1 [Example 154]
Met

Report whether reported Efflux ratio is lower than 1 (strictly) for Nc1nc2c(-c3ccc(S(=O)(=O)N4CCC(N)CC4)c(S(N)(=O)=O)c3-c3nn[nH]n3)cccc2s1 [Example 148]
Not met

Report whether reported Efflux ratio is lower than 1 (strictly) for Nc1nc2c(-c3ccc(S(=O)(=O)NCC4COCCN4)c(S(N)(=O)=O)c3-c3nn[nH]n3)cccc2[nH]1 (stereo not drawn) [Example 206]
Not met

Report whether reported Efflux ratio is lower than 1 (strictly) for NC[C@H](O)CNS(=O)(=O)c1ccc(-c2cccc3[nH]c(N)nc23)c(-c2nn[nH]n2)c1S(N)(=O)=O [Example 304]
Met

Report whether reported Efflux ratio is lower than 1 (strictly) for NCCNS(=O)(=O)c1ccc(-c2cnc3cc[nH]c3c2)c(-c2nn[nH]n2)c1S(N)(=O)=O [Example 359]
Not met

Report whether reported Efflux ratio is lower than 1 (strictly) for N[C@@H](CO)CNS(=O)(=O)c1ccc(-c2cccc(C3N=CN=N3)c2)c(-c2nn[nH]n2)c1S(N)(=O)=O (stereo partly drawn) [Example 226]
Not met

Report whether reported Efflux ratio is lower than 1 (strictly) for Nc1nc2c(-c3ccc(S(=O)(=O)N[C@H]4CNC[C@H]4N)c(S(N)(=O)=O)c3-c3nn[nH]n3)cccc2[nH]1 [Example 241]
Met

Report whether reported Efflux ratio is lower than 1 (strictly) for Nc1nc2c(-c3ccc(S(=O)(=O)NC4(CO)CCNC4)c(S(N)(=O)=O)c3-c3nnn[nH]3)cccc2s1 (stereo not drawn) [Example 83]
Met

Report whether reported Efflux ratio is lower than 1 (strictly) for N[C@@H]1C=C(c2ccc(S(=O)(=O)N[C@@H]3CCNC3)c(S(N)(=O)=O)c2-c2nn[nH]n2)CCC1 [Example 340]
Not met

###

test-target: NDM-1 (Klebsiella pneumoniae, UniProt C7C422)
Sequence (C7C422 whole entry, looked up, species assumed): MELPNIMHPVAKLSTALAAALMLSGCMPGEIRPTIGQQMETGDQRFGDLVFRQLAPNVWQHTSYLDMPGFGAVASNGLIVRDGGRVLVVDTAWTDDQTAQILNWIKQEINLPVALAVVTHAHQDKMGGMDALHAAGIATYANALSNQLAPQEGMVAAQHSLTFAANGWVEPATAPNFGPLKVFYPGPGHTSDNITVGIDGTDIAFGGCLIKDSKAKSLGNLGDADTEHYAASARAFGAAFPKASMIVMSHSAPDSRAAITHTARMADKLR
test: biochemical
Type: biochemical
protocol-conditions: fluorescence assay, CCF2-FA substrate, 1 pM enzyme, 2 hours at 25° C.; read-out: NDM-1 IC50
Output schema: class label derived from IC50. Mapping: lower segment = under 0.05 nM, middle segment = from 0.05 nM up to 0.2 nM, upper segment = 0.2 nM and over

Hello team, could you let me know which band the following compound falls into: NCC(CN)NS(=O)(=O)c1ccc(-c2cccc(-c3cnc(N)[nH]3)n2)c(-c2nnn[nH]2)c1S(N)(=O)=O [Example 438]
upper segment

Hello team, could you let me know which band the following compound falls into: COC(=O)[C@H]1C[C@@H](NS(=O)(=O)c2ccc(-c3cccc4sc(N)nc34)c(-c3nnn[nH]3)c2S(N)(=O)=O)CN1 [Example 128]
lower segment

Hello team, could you let me know which band the following compound falls into: Nc1nc2c(-c3ccc(S(=O)(=O)NCC4CNCCO4)c(S(N)(=O)=O)c3-c3nnn[nH]3)cccc2s1.O=C(O)C(F)(F)F (stereo not shown) [Example 112, 2,2,2-trifluoroacetate]
lower segment

Hello team, could you let me know which band the following compound falls into: Nc1nc2c(-c3ccc(S(=O)(=O)NC[C@@H]4CNCCN4)c(S(N)(=O)=O)c3-c3nn[nH]n3)cccc2[nH]1 [Example 310]
middle segment

Hello team, could you let me know which band the following compound falls into: NCC(CN)NS(=O)(=O)c1ccc(-c2cccc3[nH]c(N)nc23)c(-c2nn[nH]n2)c1S(N)(=O)=O [Example 429]
middle segment

Hello team, could you let me know which band the following compound falls into: NC[C@H]1CCN(S(=O)(=O)c2ccc(-c3cccc4sc(N)nc34)c(-c3nnn[nH]3)c2S(N)(=O)=O)C1 [Example 74]
upper segment

Hello team, could you let me know which band the following compound falls into: NCc1nc2cc(-c3ccc(S(=O)(=O)N[C@@H]4CCNC4)c(S(N)(=O)=O)c3-c3nn[nH]n3)ccc2[nH]1 [Example 274]
middle segment

Hello team, could you let me know which band the following compound falls into: CCC1(NS(=O)(=O)c2ccc(-c3cccc4sc(N)nc34)c(-c3nnn[nH]3)c2S(N)(=O)=O)CCNC1 (stereo not shown) [Example 56]
middle segment

Hello team, could you let me know which band the following compound falls into: NC[C@H](CO)NS(=O)(=O)c1ccc(-c2cccnc2N)c(-c2nn[nH]n2)c1S(N)(=O)=O [Example 215]
middle segment
